test_details: Drug distribution in mouse plasma at 10 mg/kg, po incubated for 3 hrs by UPLC-MS/MS analysis
Type: ADME, organism-based
concentration at 3 h values by entry
quantity_name: concentration at 3 h (ng/mL)

COC(=O)N[C@H](C(=O)N1CCC[C@H]1c1nc2cc([C@@H]3CC[C@@H](c4cc5nc([C@@H]6CCCN6C(=O)[C@@H](NC(=O)OC)[C@@H](C)OC)[nH]c5cc4F)N3c3cc(F)c(N4CCC(c5ccc(F)cc5)CC4)c(F)c3)c(F)cc2[nH]1)[C@@H](C)OC 1540
COC(=O)N[C@H](C(=O)N1CCC[C@H]1C(=O)Nc1ccc([C@@H]2CC[C@@H](c3ccc(NC(=O)[C@@H]4CCCN4C(=O)[C@@H](NC(=O)OC)[C@@H](C)OC)cc3)N2c2cc(F)c(N3CC[Si](C)(C)CC3)c(F)c2)cc1)[C@@H](C)OC 308

* * *

concentration at 0.5 h values by entry
test_details: Drug distribution in mouse liver at 10 mg/kg, po incubated for 0.5 hrs by UPLC-MS/MS analysis
Type: ADME, organism-based
test_conditions: read-out: Drug uptake
quantity_name: concentration at 0.5 h (ng/g)

COC(=O)N[C@H](C(=O)N1CCC[C@H]1C(=O)Nc1ccc([C@@H]2CC[C@@H](c3ccc(NC(=O)[C@@H]4CCCN4C(=O)[C@@H](NC(=O)OC)[C@@H](C)OC)cc3)N2c2cc(F)c(N3CC[Si](C)(C)CC3)c(F)c2)cc1)[C@@H](C)OC 436
COC(=O)N[C@H](C(=O)N1CCC[C@H]1c1nc2cc([C@@H]3CC[C@@H](c4cc5nc([C@@H]6CCCN6C(=O)[C@@H](NC(=O)OC)[C@@H](C)OC)[nH]c5cc4F)N3c3cc(F)c(N4CCC(c5ccc(F)cc5)CC4)c(F)c3)c(F)cc2[nH]1)[C@@H](C)OC 94

* * *

test_details: Metabolic stability in rat liver microsomes assessed as compound remaining at 1 uM incubated for 60 mins by UPLC-MS/MS analysis
Assay type: ADME, Microsome
test_conditions: read-out: Stability
remaining at 1 h, 1 µM values by entry
quantity_name: remaining at 1 h, 1 µM (%)

COC(=O)N[C@H](C(=O)N1CCC[C@H]1C(=O)Nc1ccc([C@@H]2CC[C@@H](c3ccc(NC(=O)[C@@H]4CCCN4C(=O)[C@@H](NC(=O)OC)C(C)C)cc3)N2c2ccc(C(C)(C)C)cc2)cc1)C(C)C 73.5
COC(=O)N[C@H](C(=O)N1CCC[C@H]1C(=O)Nc1ccc([C@@H]2CC[C@@H](c3ccc(NC(=O)[C@@H]4CCCN4C(=O)[C@@H](NC(=O)OC)[C@@H](C)OC)cc3)N2c2cc(F)c(N3CC[Si](C)(C)CC3)c(F)c2)cc1)[C@@H](C)OC 76.3

* * *

test_details: Ratio of drug distribution in mouse liver to drug distribution in mouse plasma measured after 0.5 hrs by UPLC-MS/MS analysis
Format: ADME, cell-free
Kp at 0.5 h values by entry
quantity_name: Kp at 0.5 h

COC(=O)N[C@H](C(=O)N1CCC[C@H]1C(=O)Nc1ccc([C@@H]2CC[C@@H](c3ccc(NC(=O)[C@@H]4CCCN4C(=O)[C@@H](NC(=O)OC)[C@@H](C)OC)cc3)N2c2cc(F)c(N3CC[Si](C)(C)CC3)c(F)c2)cc1)[C@@H](C)OC 8.8
COC(=O)N[C@H](C(=O)N1CCC[C@H]1c1nc2cc([C@@H]3CC[C@@H](c4cc5nc([C@@H]6CCCN6C(=O)[C@@H](NC(=O)OC)[C@@H](C)OC)[nH]c5cc4F)N3c3cc(F)c(N4CCC(c5ccc(F)cc5)CC4)c(F)c3)c(F)cc2[nH]1)[C@@H](C)OC 0.43

* * *

test_details: Drug distribution in rat plasma at 10 mg/kg, po incubated for 0.5 hrs by UPLC-MS/MS analysis
Assay type: ADME, organism-based
quantity_name: concentration at 0.5 h (ng/mL)

COC(=O)N[C@H](C(=O)N1CCC[C@H]1c1nc2cc([C@@H]3CC[C@@H](c4cc5nc([C@@H]6CCCN6C(=O)[C@@H](NC(=O)OC)[C@@H](C)OC)[nH]c5cc4F)N3c3cc(F)c(N4CCC(c5ccc(F)cc5)CC4)c(F)c3)c(F)cc2[nH]1)[C@@H](C)OC 103
COC(=O)N[C@H](C(=O)N1CCC[C@H]1C(=O)Nc1ccc([C@@H]2CC[C@@H](c3ccc(NC(=O)[C@@H]4CCCN4C(=O)[C@@H](NC(=O)OC)[C@@H](C)OC)cc3)N2c2cc(F)c(N3CC[Si](C)(C)CC3)c(F)c2)cc1)[C@@H](C)OC 40.9

* * *

concentration at 8 h values by entry
test_details: Drug distribution in rat liver at 10 mg/kg, po incubated for 8 hrs by UPLC-MS/MS analysis
Format: ADME, organism-based
test_conditions: read-out: Drug uptake
quantity_name: concentration at 8 h (ng/g)

COC(=O)N[C@H](C(=O)N1CCC[C@H]1C(=O)Nc1ccc([C@@H]2CC[C@@H](c3ccc(NC(=O)[C@@H]4CCCN4C(=O)[C@@H](NC(=O)OC)[C@@H](C)OC)cc3)N2c2cc(F)c(N3CC[Si](C)(C)CC3)c(F)c2)cc1)[C@@H](C)OC 293
COC(=O)N[C@H](C(=O)N1CCC[C@H]1c1nc2cc([C@@H]3CC[C@@H](c4cc5nc([C@@H]6CCCN6C(=O)[C@@H](NC(=O)OC)[C@@H](C)OC)[nH]c5cc4F)N3c3cc(F)c(N4CCC(c5ccc(F)cc5)CC4)c(F)c3)c(F)cc2[nH]1)[C@@H](C)OC 18.9

* * *

test_details: Drug distribution in rat plasma at 10 mg/kg, po incubated for 3 hrs by UPLC-MS/MS analysis
Format: ADME, organism-based
quantity_name: concentration at 3 h

COC(=O)N[C@H](C(=O)N1CCC[C@H]1C(=O)Nc1ccc([C@@H]2CC[C@@H](c3ccc(NC(=O)[C@@H]4CCCN4C(=O)[C@@H](NC(=O)OC)[C@@H](C)OC)cc3)N2c2cc(F)c(N3CC[Si](C)(C)CC3)c(F)c2)cc1)[C@@H](C)OC 45.2 ng/mL
COC(=O)N[C@H](C(=O)N1CCC[C@H]1c1nc2cc([C@@H]3CC[C@@H](c4cc5nc([C@@H]6CCCN6C(=O)[C@@H](NC(=O)OC)[C@@H](C)OC)[nH]c5cc4F)N3c3cc(F)c(N4CCC(c5ccc(F)cc5)CC4)c(F)c3)c(F)cc2[nH]1)[C@@H](C)OC 96.4 ng/mL

* * *

test_details: Drug distribution in mouse liver at 10 mg/kg, po incubated for 24 hrs by UPLC-MS/MS analysis
Assay type: ADME, organism-based
test_conditions: read-out: Drug uptake
quantity_name: concentration at 24 h

COC(=O)N[C@H](C(=O)N1CCC[C@H]1c1nc2cc([C@@H]3CC[C@@H](c4cc5nc([C@@H]6CCCN6C(=O)[C@@H](NC(=O)OC)[C@@H](C)OC)[nH]c5cc4F)N3c3cc(F)c(N4CCC(c5ccc(F)cc5)CC4)c(F)c3)c(F)cc2[nH]1)[C@@H](C)OC 69.6 ng/g
COC(=O)N[C@H](C(=O)N1CCC[C@H]1C(=O)Nc1ccc([C@@H]2CC[C@@H](c3ccc(NC(=O)[C@@H]4CCCN4C(=O)[C@@H](NC(=O)OC)[C@@H](C)OC)cc3)N2c2cc(F)c(N3CC[Si](C)(C)CC3)c(F)c2)cc1)[C@@H](C)OC 625 ng/g

* * *

test_details: Ratio of drug distribution in rat liver to drug distribution in rat plasma measured after 3 hrs by UPLC-MS/MS analysis
Assay type: ADME, cell-free
quantity_name: Kp at 3 h

COC(=O)N[C@H](C(=O)N1CCC[C@H]1C(=O)Nc1ccc([C@@H]2CC[C@@H](c3ccc(NC(=O)[C@@H]4CCCN4C(=O)[C@@H](NC(=O)OC)[C@@H](C)OC)cc3)N2c2cc(F)c(N3CC[Si](C)(C)CC3)c(F)c2)cc1)[C@@H](C)OC 5.2
COC(=O)N[C@H](C(=O)N1CCC[C@H]1c1nc2cc([C@@H]3CC[C@@H](c4cc5nc([C@@H]6CCCN6C(=O)[C@@H](NC(=O)OC)[C@@H](C)OC)[nH]c5cc4F)N3c3cc(F)c(N4CCC(c5ccc(F)cc5)CC4)c(F)c3)c(F)cc2[nH]1)[C@@H](C)OC 1.1

* * *

test_details: Drug distribution in rat liver at 10 mg/kg, po incubated for 0.5 hrs by UPLC-MS/MS analysis
Format: ADME, organism-based
test_conditions: read-out: Drug uptake
quantity_name: concentration at 0.5 h (ng/g)

COC(=O)N[C@H](C(=O)N1CCC[C@H]1c1nc2cc([C@@H]3CC[C@@H](c4cc5nc([C@@H]6CCCN6C(=O)[C@@H](NC(=O)OC)[C@@H](C)OC)[nH]c5cc4F)N3c3cc(F)c(N4CCC(c5ccc(F)cc5)CC4)c(F)c3)c(F)cc2[nH]1)[C@@H](C)OC 155
COC(=O)N[C@H](C(=O)N1CCC[C@H]1C(=O)Nc1ccc([C@@H]2CC[C@@H](c3ccc(NC(=O)[C@@H]4CCCN4C(=O)[C@@H](NC(=O)OC)[C@@H](C)OC)cc3)N2c2cc(F)c(N3CC[Si](C)(C)CC3)c(F)c2)cc1)[C@@H](C)OC 359
